Source of measurements: patent US5066655A

Tested on: A1 and A2 adenosine receptors
method.summary: Activity at adenosine receptors, A1 versus A2 selectivity (overall)
Format: biochemical
conditions: in words
observable: receptor selectivity A1 versus A2

Recorded receptor selectivity A1 versus A2 (molecule Cn1cnc2c(NC3CCC3)ncnc21 ): selective for receptors

Cn1cnc2c(NC3(C)CCCC3)ncnc21 has a reported receptor selectivity A1 versus A2 of selective for receptors

Measured receptor selectivity A1 versus A2 of Cn1cnc2c(NC3CCCCC3)ncnc21 : selective for receptors
